Each recorded value in this set is attributed to the METLIN SMRT retention time set (Domingo-Almenara et al. 2019).

Listed compounds paired with reported RP-LC retention time
Assay: gradient 5% acetonitrile 3 min, to 50% in 2 min, to 85% in 15 min, held 3 min, 100 µL/min
Details: column: Zorbax Extend-C18 2.1 x 50 mm; eluents: water / acetonitrile, 0.1% formic acid
Respond numerically; units are s and should not be typed.

In the examples that follow, each entry is paired with its recorded RP-LC retention time.
[[record]]
compound = "Cc1cc(OCC(=O)Nc2ccc(Cl)cc2F)nc(N2CCN(c3ccccc3)CC2)n1"
result_number = 945

[[record]]
compound = "COc1ccccc1CNC(=O)c1ccc2ncnc(N3CCCC3)c2c1"
result_number = 640

[[record]]
compound = "CCn1c(=O)c2ccccc2n(CC(=O)N2CCC(C(N)=O)CC2)c1=O"
result_number = 601

[[record]]
compound = "COC(=O)C(NC(=O)N1CCCn2nc(-c3cccnc3)cc2C1)c1ccccc1 (stereo unspecified)"
result_number = 616

[[record]]
compound = "COc1ccccc1-c1noc(C2CCCN2C(=O)c2sc(C)nc2C)n1 (stereo unspecified)"
result_number = 750


Query :: Requested field: RP-LC retention time. Item: `COc1ccc(Cl)cc1NC(=O)N(C)CC1CCOCC1`
Result :: 816

Query :: Requested field: RP-LC retention time. Item: `CCc1nnc2sc(-c3cc(C)nc4ccc(Br)cc34)nn12`
Result :: 892

Query :: Requested field: RP-LC retention time. Item: `CCc1cc(N2CCN(C(=O)COc3ccc(OC)cc3)CC2)nc2nncn12`
Result :: 602

Query :: Requested field: RP-LC retention time. Item: CC1CCN(C(=O)c2ccccc2OCC2CCCN(C3CCCC3)C2)CC1 (stereo unspecified)
Result :: 696

Query :: Requested field: RP-LC retention time. Item: `COc1cccc(CNC(=O)C2CCN(CC(=O)Nc3ccc(C)cc3)CC2)c1`
Result :: 582

Query :: Requested field: RP-LC retention time. Item: `CC(C)CCNC(=O)c1nnc(-c2ccc(S(=O)(=O)N3CCOCC3)cc2)o1`
Result :: 851

Query :: Requested field: RP-LC retention time. Item: `O=C(NCc1ccc2c(c1)OCO2)C1=C2CCCN2c2ccccc2S1(=O)=O`
Result :: 805

Query :: Requested field: RP-LC retention time. Item: `COCC(=O)N(C1CCOCC1)C1CCN(S(=O)(=O)c2cccc(F)c2)CC1`
Result :: 758

Query :: Requested field: RP-LC retention time. Item: `Cc1nnc(-c2ccc3ccn(CC(=O)Nc4ccc5c(c4)OCCO5)c3c2)o1`
Result :: 756

Query :: Requested field: RP-LC retention time. Item: `Cc1cc(C)cc(C(=O)NCc2ccc3c(c2)ncn3C)c1`
Result :: 615

Query :: Requested field: RP-LC retention time. Item: `Cc1cccc(-c2nnc(C)c(NCc3ccc(C)o3)n2)c1`
Result :: 736

Query :: Requested field: RP-LC retention time. Item: `Cc1cc(C)c(NC(=O)Cn2cnc3onc(C)c3c2=O)c(C)c1`
Result :: 764

Query :: Requested field: RP-LC retention time. Item: `Cc1ccc(S(=O)(=O)c2ccc(N3CCN(c4ccccn4)CC3)nn2)cc1C`
Result :: 657

Query :: Requested field: RP-LC retention time. Item: CCOC(=O)c1c(C)[nH]c(C(=O)N2CCCC(C(=O)NCCCN3CCN(CC)CC3)C2)c1C (stereo unspecified)
Result :: 579

Query :: Requested field: RP-LC retention time. Item: CN(C)CCNC(=O)CN1C(=O)C2CCCCN2c2ccc(C(=O)N3CCCCC3)cc21 (stereo unspecified)
Result :: 619

Query :: Requested field: RP-LC retention time. Item: `CCC(=O)N(C1CCOCC1)C1CCN(S(=O)(=O)c2ccc(Cl)cc2)CC1`
Result :: 886

Query :: Requested field: RP-LC retention time. Item: `Cc1cc(C)c2[nH]c3c(c(=O)c2c1)CN(CC(=O)Nc1cccc(F)c1)CC3`
Result :: 640
